Target: T1, hIL-18 receptor (hIL-18Rα and hIL-18Rβ) (human, UniProt Q13478 19-541; O95256 20-599)
T1 sequence (looked up) 1: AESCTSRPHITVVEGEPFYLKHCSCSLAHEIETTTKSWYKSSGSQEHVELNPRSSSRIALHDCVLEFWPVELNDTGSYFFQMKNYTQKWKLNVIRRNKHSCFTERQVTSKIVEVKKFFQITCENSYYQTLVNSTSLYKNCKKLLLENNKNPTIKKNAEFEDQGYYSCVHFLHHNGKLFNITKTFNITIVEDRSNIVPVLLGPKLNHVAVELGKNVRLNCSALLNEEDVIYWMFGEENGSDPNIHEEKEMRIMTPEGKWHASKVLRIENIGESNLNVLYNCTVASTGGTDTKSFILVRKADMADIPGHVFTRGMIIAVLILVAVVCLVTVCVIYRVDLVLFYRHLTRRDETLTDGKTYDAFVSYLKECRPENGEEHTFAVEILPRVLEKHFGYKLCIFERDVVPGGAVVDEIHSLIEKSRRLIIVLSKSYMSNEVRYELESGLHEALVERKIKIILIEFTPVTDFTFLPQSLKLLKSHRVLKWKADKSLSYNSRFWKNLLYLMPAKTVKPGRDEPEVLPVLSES
T1 sequence (looked up) 2: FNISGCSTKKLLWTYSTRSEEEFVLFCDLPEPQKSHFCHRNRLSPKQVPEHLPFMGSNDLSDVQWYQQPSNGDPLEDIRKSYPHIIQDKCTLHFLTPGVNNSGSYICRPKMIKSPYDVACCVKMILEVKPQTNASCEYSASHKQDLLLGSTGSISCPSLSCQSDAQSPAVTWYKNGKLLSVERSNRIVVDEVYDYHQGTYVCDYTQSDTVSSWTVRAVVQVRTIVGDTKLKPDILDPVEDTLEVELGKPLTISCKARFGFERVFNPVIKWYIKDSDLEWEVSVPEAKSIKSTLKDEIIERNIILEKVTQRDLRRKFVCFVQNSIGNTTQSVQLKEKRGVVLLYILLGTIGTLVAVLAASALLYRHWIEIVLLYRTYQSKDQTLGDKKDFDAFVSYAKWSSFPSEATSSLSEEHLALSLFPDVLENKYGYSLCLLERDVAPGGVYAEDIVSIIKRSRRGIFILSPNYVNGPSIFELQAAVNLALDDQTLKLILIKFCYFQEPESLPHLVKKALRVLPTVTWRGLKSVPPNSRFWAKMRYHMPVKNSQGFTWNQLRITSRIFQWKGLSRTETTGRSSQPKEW
Run description: cell-based or functional assay
Measurement kind: EC50 (nM), hIL-18 reporter assay

Binder	Number
IL-18 variant polypeptide M11 (ligand) YFPKLRSKLSVIRNLNDQVLFIDQGNRPLFEDMTDSDCRDNAPRTIFIISMYKSSRNRGMAVTISVKCEKISTLSCENKIISFKEMNPPDGIKDTKSDIIFFQTSVPGHDNKMQFESSSYEGYFLACEKERDLFKLILKKEDELGDRSIMFTVQNED	0.13
IL-18 variant polypeptide LM1 (ligand) YFPKLKSKLSVIRNLNDQVLFIDQGNRPLFEDMTDSDCRDNAPRTIFIISMYKGSGARGMAVTISVKCEKISTLSCENKIISFKEMNPPDNIKDTKSDIIFFQRSVPGHDNKMQFESSSYEGYFLACEKERDLFKLILKKEDELGDRSIMFTVQNED	0.076
IL-18 variant polypeptide M25 (ligand) YFPKLRSKLSVIRNLNDQVLFIDQGNRPLFEDMTDSDCRDNAPRTIFIISMYKLSTTRGMAVTISVKCEKISTLSCENKIISFKEMNPPDRIKDTKSDIIFFQRSVPGHDNKMQFESSSYEGYFLACEKERDLFKLILKKEDELGDRSIMFTVQNED	0.58
IL-18 variant polypeptide MM2 (ligand) YFAKLYSKLSVIRNLNDQVLFIDQGNRPLFEDMTDSDCRDNAPRTIFIISMYKRSSLRGMAVTISVKCEKISTLSCENKIISFKEMNPPDGIKDTKSDIIFFQRSVPGHDNKMQFESSSYEGYFLACEKERDLFKLILKKEDELGDRSIMFTVQNED	0.93
IL-18 variant polypeptide M28 (ligand) YFPKLASKLSVIRNLNDQVLFIDQGNRPLFEDMTDSDCRDNAPRTIFIISMYKWSGGRGMAVTISVKCEKISTLSCENKIISFKEMNPPDVIKDTKSDIIFFQYSVPGHDNKMQFESSSYEGYFLACEKERDLFKLILKKEDELGDRSIMFTVQNED	0.018
IL-18 variant polypeptide M31 (ligand) YFPKLRSKLSVIRNLNDQVLFIDQGNRPLFEDMTDSDCRDNAPRTIFIISMYKHSIHRGMAVTISVKCEKISTLSCENKIISFKEMNPPDIIKDTKSDIIFFQYSVPGHDNKMQFESSSYEGYFLACEKERDLFKLILKKEDELGDRSIMFTVQNED	0.25
IL-18 variant polypeptide M13 (ligand) YFPKLKSKLSVIRNLNDQVLFIDQGNRPLFEDMTDSDCRDNAPRTIFIISMYKQSIWRGMAVTISVKCEKISTLSCENKIISFKEMNPPDNIKDTKSDIIFFQRSVPGHDNKMQFESSSYEGYFLACEKERDLFKLILKKEDELGDRSIMFTVQNED	0.035
IL-18 variant polypeptide M3 (ligand) YFPKLKSKLSVIRNLNDQVLFIDQGNRPLFEDMTDSDCRDNAPRTIFIISMYKWSHVRGMAVTISVKCEKISTLSCENKIISFKEMNPPDAIKDTKSDIIFFQYSVPGHDNKMQFESSSYEGYFLACEKERDLFKLILKKEDELGDRSIMFTVQNED	0.24
IL-18 variant polypeptide M36 (ligand) YFPKLSSKLSVIRNLNDQVLFIDQGNRPLFEDMTDSDCRDNAPRTIFIISMYKASDQRGMAVTISVKCEKISTLSCENKIISFKEMNPPDGIKDTKSDIIFFQRSVPGHDNKMQFESSSYEGYFLACEKERDLFKLILKKEDELGDRSIMFTVQNED	3.9
IL-18 variant polypeptide M30 (ligand) YFPKLLSKLSVIRNLNDQVLFIDQGNRPLFEDMTDSDCRDNAPRTIFIISMYKHSTVRGMAVTISVKCEKISTLSCENKIISFKEMNPPDSIKDTKSDIIFFQRSVPGHDNKMQFESSSYEGYFLACEKERDLFKLILKKEDELGDRSIMFTVQNED	2.5
IL-18 variant polypeptide M16 (ligand) YFPKLRSKLSVIRNLNDQVLFIDQGNRPLFEDMTDSDCRDNAPRTIFIISMYKSSRNRGMAVTISVKCEKISTLSCENKIISFKEMNPPDGIKDTKSDIIFFQSSVPGHDNKMQFESSSYEGYFLACEKERDLFKLILKKEDELGDRSIMFTVQNED	0.29
IL-18 variant polypeptide M4 (ligand) YFPKLKSKLSVIRNLNDQVLFIDQGNRPLFEDMTDSDCRDNAPRTIFIISMYKWSGVRGMAVTISVKCEKISTLSCENKIISFKEMNPPDVIKDTKSDIIFFQFSVPGHDNKMQFESSSYEGYFLACEKERDLFKLILKKEDELGDRSIMFTVQNED	0.018
IL-18 variant polypeptide M27 (ligand) YFPKLRSKLSVIRNLNDQVLFIDQGNRPLFEDMTDSDCRDNAPRTIFIISMYKHSYTRGMAVTISVKCEKISTLSCENKIISFKEMNPPDVIKDTKSDIIFFQYSVPGHDNKMQFESSSYEGYFLACEKERDLFKLILKKEDELGDRSIMFTVQNED	0.18
